test: AUClast in Sprague-Dawley rat at 4 mg/kg, po by LC/MS/MS analysis; type: ADME, organism-based; parameters: dose 4 mg/kg, route oral, time 0 - last; details: in vivo
measurement kind: AUC(0-t) (ng·h/mL)

smiles input | AUC(0-t), ng·h/mL
CN1CCN(c2ccc(Nc3cc(-c4cccc(-n5ccc6cc(C7CC7)cc(F)c6c5=O)c4CO)cn(C)c3=O)nc2)CC1 | 1050

a. CN(C)C(=O)N1CC=C(c2cc3c(-c4cccc(-n5ccc6cc(C7CC7)cc(F)c6c5=O)c4CO)ccnc3[nH]2)CC1
b. CN(C)C(=O)N1CC=C(c2cc3c(-c4cccc(-n5ccc6cc(C7CC7)cc(F)c6c5=O)c4CO)ncnc3[nH]2)CC1
Request: Between the entries labeled a and b , whose measured AUC(0-t) is lower? Please reply using the label of the selected record.
Response: b
